- Experiment summary: qHTS assay for small molecule antagonists of peroxisome proliferator-activated receptor delta signaling (AID 588535);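 also: cells co-treated with a PPAR-delta agonist as stimulator during compound exposure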
- Measurement parameters: HEK293T PPARd-UAS-bla, beta-lactamase FRET ratio, 18 h; 460 nm channel
Records with an inconclusive call do not appear.
Entries and their max response

[
  {
    "Substance smiles": "Cc1cccc(O)c1C",
    "max response [%]": -7.79
  },
  {
    "Substance smiles": "Cc1cc(C(C)(C)CC(C)(C)C)ccc1OCCOCC[N+](C)(C)Cc1ccccc1",
    "max response [%]": 14.2
  },
  {
    "Substance smiles": "CCCCCC/C(C=O)=C\\c1ccccc1",
    "max response [%]": 24.4
  },
  {
    "Substance smiles": "O=Cc1ccc(Cl)c(Cl)c1",
    "max response [%]": 20.6
  }
]
